Assay: Drug level in BALB/c mouse liver at 40 mg/kg, po administered as single dose after 24 hrs
Format: ADME, organism-based
Conditions: read-out: Drug uptake
REPORTED METRIC: concentration at 24 h (nM)
Give bare numbers, in nM.

Ask: Consider the compound CC(C)Oc1cc(NC(=N)c2ccccn2)ccc1-c1ccc(-c2ccccc2)o1.CS(=O)(=O)O and give its measured concentration at 24 h.
Result: 600

* * *

Assay: Drug level in BALB/c mouse liver at 40 mg/kg, po administered as single dose after 1 hr
Format: ADME, organism-based
Settings: read-out: Drug uptake
REPORTED METRIC: concentration at 1 h
Report field: quantity (unit follows the number).

Ask: Consider the molecule CC(C)Oc1cc(NC(=N)c2ccccn2)ccc1-c1ccc(-c2ccccc2)o1.CS(=O)(=O)O and give its measured concentration at 1 h.
Result: 12.6 µM

FYI, the data here is from ChEMBL document CHEMBL3792273.
